B1: TPR t1 (parent)
chain: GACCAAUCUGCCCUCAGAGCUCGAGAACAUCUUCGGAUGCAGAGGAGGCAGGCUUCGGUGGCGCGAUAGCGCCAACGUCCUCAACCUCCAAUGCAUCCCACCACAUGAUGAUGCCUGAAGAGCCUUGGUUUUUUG

# Variants of: B1
# runDescription: polymerase ribozyme fitness, log enrichment relative to wild type (log ratio); higher = more active; in vitro selection for triplet polymerase activity
Listed here are variants together with their documented polymerase ribozyme fitness (log ratio).
propertyLabel: polymerase ribozyme fitness (log ratio)

* GACCAAUCUGCCUUCAGAGCUCGAGAACAUCUUAGGAUGCAGAGGAGGCAGGCAUCGGUGGCGCGAUAGCGCCAACGCCCUCAACCUCCAAUGCAUCCCACCACAUGAUGAAGCCUGAAGACCCUUGGUUUUUUG | -3.05
* GACCAAUCUGCCCUCAGAGCUCGAGAAGAUCUUCGGAUGCAGAGGAGGCAGGCUUCGGUGGCGCGAUAGCGCCAACGUCCUCAACCUCCAAUGCAACCCACCACAUGAUGAUGCCUGAAGAGCCUUGGUUUUUUG | -3.94
* GACCAAUCUGCCCUCAGAGCUCGAGAACAUCUUCGGAUGCGGAGGAGGCAGGCUUCGGUGGCGCGAUACCGCCAACGUCCUCAACCUCCAAUGCAUCCCACCACAUGAUGAUGCCUGAAGAGCCUUGGUUUUUUG | -1.9
* GACCAAUCUGCACUCAGAGCUCGAGAACAUCUUCGGAUGCAGAGGAGGCAGGCUUCGGUGGCGCGAUAGCGCCAACGUCCUCAACCUCCAAUGCAUCCCACCACAUGAUGAUGCCUUAAGAGCCUUGGUUCUUUG | -4.17
* GACCAAUCUGCCCUCAGAGCUCGAGAACAUCUUCGGAUGCAGAGGAGGCAGGCUUCGCUGGCGCGAUAGCGCCAACGUCCUCAACCUCCAAUGCAGCCCACCAUAUGAUGAUGCCUGAAGAGCCUUGGUUUUUUG | -0.405
